- Test system: cataracts in rats
- test method notes: Prevention or retardation of cataracts in galactose-fed rats
- Type: in vivo, rat
- condition context: Study Day 14; 30% galactose diet; A,C,E 0.0025%, B,D 0.01%
# Number of Eyes Observed, ± values compiled below
Entry rule: numbers only, all in eyes.

Sample answers from the record:
In [3]: df
Out[3]:
                                   compound  number
0  C[S+]([O-])c1ccc2c(c1)C1(CCO2)NC(=O)NC1=O (stereo not shown)       2
1  O=C1NC(=O)C2(CCOc3ccc(F)cc32)N1 (stereo not shown)       3
2  CSc1ccc2c(c1)C1(CCO2)NC(=O)NC1=O (stereo not shown) [A]       1

**Query** State the recorded Number of Eyes Observed, ± for this entry: CSc1ccc2c(c1)C1(CCO2)NC(=O)NC1=O (stereo not shown) [B]
**Result** 3
